Target: δ-opioid receptor (Rattus norvegicus, UniProt P33533)
Construct: synaptic membrane fraction obtained from the rat brain tissue; from tissue; host or cells: Sprague-Dawley rat brain without cerebellum, synaptic membrane (P2) fraction
Sequence (P33533 whole entry): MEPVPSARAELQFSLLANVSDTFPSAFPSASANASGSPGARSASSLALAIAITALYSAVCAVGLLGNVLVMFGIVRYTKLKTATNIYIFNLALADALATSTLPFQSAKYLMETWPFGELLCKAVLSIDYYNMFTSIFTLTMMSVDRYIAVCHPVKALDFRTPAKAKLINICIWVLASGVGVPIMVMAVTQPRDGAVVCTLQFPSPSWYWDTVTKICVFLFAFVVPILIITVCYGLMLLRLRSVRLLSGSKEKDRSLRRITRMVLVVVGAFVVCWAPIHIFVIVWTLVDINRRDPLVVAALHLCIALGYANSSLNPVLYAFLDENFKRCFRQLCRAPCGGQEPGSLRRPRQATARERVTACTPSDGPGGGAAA
Experiment: Competitive receptor binding assay, synaptic membrane fraction, [3H]DPDPE
Settings: rat brain synaptic membrane, read-out: Affinity of receptor (Ki, nM) δ
Below, each of the compounds is paired with its reported Ki value.
readout: Ki (nM)

[[record]]
compound = "Cc1cc(O)cc(C)c1C[C@H](N)C(=O)NCCCCCCNC(=O)[C@@H](N)Cc1c(C)cc(O)cc1C [Ex.4, 1,6-Bis(Dmt-amino)hexane.2HCl]"
readout = "Ki"
measured_number = 46.1

[[record]]
compound = "N[C@@H](Cc1ccc(O)cc1)C(=O)NCCCCCCCCNC(=O)[C@@H](N)Cc1ccc(O)cc1 [Ref.ex.5, 1,8-Bis(Tyr-amino)octane.2TFA, reference compound]"
readout = "Ki"
measured_number = 6150

[[record]]
compound = "Cc1cc(O)cc(C)c1C[C@H](N)C(=O)NCCCCNC(=O)[C@@H](N)Cc1ccccc1 [Ex.2, 1-Dmt-amino-4-Phe-aminobutane.2HCl]"
readout = "Ki"
measured_number = 61


Value source: patent US6838580B2
